The measurements presented in this section are drawn from patent US20250179047A1.

System: BCL2 G101V
procedure.text: TR-FRET competitive binding assay, BCL2 G101V
Set-up: species or system human
protocol.conditions: ratio Ki BCL2 G101V / Ki BCL2 WT

| substance.smiles | TR_FRET EKI G101V/WT selectivty ratio |
| --- | --- |
| Cc1c(C(=O)N(c2ccc(O)cc2)c2cc(C#N)n(C(F)F)c2C)cc(-c2cc3c(cc2C(=O)N2Cc4ccccc4C[C@H]2CN2CCCCC2)CN(C(=O)Cc2ccc(OCCN4CCC(F)CC4)cc2F)CC3)n1C | 9.4 |
| Cc1ncc(N(C(=O)c2cc(-c3cc4c(cc3C(=O)N3Cc5ccccc5C[C@H]3CN3CCCCC3)CN(C(=O)Cc3ccc(OCCN5CCOCC5)cc3F)CC4)n(C)c2C)c2ccc(O)cc2)cc1C#N | 10.0 |
| COc1ccc(N(C(=O)c2cc(-c3cc4c(cc3C(=O)N3Cc5ccccc5C[C@H]3CN3CCCCC3)CN(C(=O)Cc3ccc(OCCN5CCOCC5)cc3F)CC4)n(C)c2C)c2ccc(O)cc2)cn1 | 21.1 |

* * *

assay.target: BCL2 WT (Homo sapiens (Human), UniProt P10415)
Sequence (P10415 other isoform, or with tags, fused parts or gaps): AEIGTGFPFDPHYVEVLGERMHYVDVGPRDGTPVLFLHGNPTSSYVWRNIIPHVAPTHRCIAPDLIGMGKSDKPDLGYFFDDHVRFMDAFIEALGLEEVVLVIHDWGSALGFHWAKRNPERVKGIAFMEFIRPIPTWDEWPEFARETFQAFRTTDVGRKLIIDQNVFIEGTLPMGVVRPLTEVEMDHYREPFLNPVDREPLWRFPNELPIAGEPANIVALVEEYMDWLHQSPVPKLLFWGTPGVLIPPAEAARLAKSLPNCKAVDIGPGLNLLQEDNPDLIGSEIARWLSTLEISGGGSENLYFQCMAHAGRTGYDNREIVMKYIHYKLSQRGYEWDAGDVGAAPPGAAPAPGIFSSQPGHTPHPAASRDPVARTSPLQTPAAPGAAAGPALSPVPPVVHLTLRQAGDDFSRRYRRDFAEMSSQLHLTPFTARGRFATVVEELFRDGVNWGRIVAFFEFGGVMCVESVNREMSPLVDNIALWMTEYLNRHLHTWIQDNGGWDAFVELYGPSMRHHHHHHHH
procedure.text: TR-FRET competitive binding assay, BCL2 WT
protocol.conditions: Ki determined from IC50, read-out: TR_FRET EKI_Bcl2 WT
# Ki listing for each entry below

| compound | Ki |
| --- | --- |
| Cc1c(N(C(=O)c2cc(-c3cc4c(cc3C(=O)N3Cc5ccccc5C[C@H]3C)CN(C(=O)Cc3cc(F)c(OCCN5CCOCC5)cc3F)CC4)n(C)c2C)c2ccc(O)cc2)cc(C#N)n1C [Example 69] | 0.25 nM |
| Cc1c(N(C(=O)c2cc(-c3cc4c(cc3C(=O)N3Cc5ccccc5C[C@H]3CN3CCCCC3)CN(C(=O)Cc3ccc(OCCN5CCN(C)CC5)cc3)CC4)n(C)c2C)c2ccc(O)cc2)cc(C#N)n1C [Example 119] | 0.04 nM |
| Cc1c(N(C(=O)c2cc(-c3cc4c(cc3C(=O)N3Cc5ccccc5C[C@H]3COCC3CC3)CN(C(=O)Cc3ccc(OCCN5CCOCC5)cc3F)CC4)n(C)c2C)c2ccc(O)cc2)cc(C#N)n1C [Example 170] | 0.3 nM |
| Cc1c(N(C(=O)c2cc(-c3cc4c(cc3C(=O)N3Cc5ccccc5C[C@H]3CN3CCCCC3)CN(C(=O)Cc3ccc(OCCN(C)C5CC5)cc3)CC4)n(C)c2C)c2ccc(O)cc2)cc(C#N)n1C [Example 102] | 0.06 nM |
| Cc1c(N(C(=O)c2cc(-c3cc4c(cc3C(=O)N3Cc5ccccc5C[C@H]3CN3CCCCC3)CN(C(=O)Cc3ccc(OCCN(C)CCF)cc3)CC4)n(C)c2C)c2ccc(O)cc2)cc(C#N)n1C [Example 116] | 0.05 nM |
| Cc1ccc(N(C(=O)c2cc(-c3cc4c(cc3C(=O)N3Cc5ccccc5C[C@H]3C)CN(C(=O)Cc3ccc(OCCN5CCOCC5)cc3)CC4)n(C)c2C)c2ccccc2)cc1C#N [Example 204] | 0.06 nM |
| COc1ccc(N(C(=O)c2cc(-c3cc4c(cc3C(=O)N3Cc5ccccc5C[C@H]3C)CN(C(=O)Cc3ccc(OCCN5CCOCC5)cc3)CC4)n(C)c2C)c2ccccc2)cn1 [Example 191] | 0.04 nM |

* * *

assay.target: BCL2 D103Y (Homo sapiens, UniProt P10415, D103Y)
procedure.text: TR-FRET competitive binding assay, BCL2 D103Y
protocol.conditions: Ki determined from IC50, read-out: TR_FRET EKI_Bcl2 D103Y
pKi: −log10 of the molar value.

| substance.smiles | pKi |
| --- | --- |
| Cc1c(N(C(=O)c2cc(-c3cc4c(cc3C(=O)N3Cc5ccccc5C[C@H]3CN(C)C(C)C)CN(C(=O)Cc3ccc(OCCN(C)C5CC5)cc3)CC4)n(C)c2C)c2ccc(O)cc2)cc(C#N)n1C | 9.62 |
| Cc1c(N(C(=O)c2cc(-c3cc4c(cc3C(=O)N3Cc5ccccc5C[C@H]3CN3CCCCC3)CN(C(=O)Cc3ccc(OCCN5C[C@@H](C)O[C@@H](C)C5)cc3)CC4)n(C)c2C)c2ccc(O)cc2)cc(C#N)n1C | 9.62 |
| Cc1c(N(C(=O)c2cc(-c3cc4c(cc3C(=O)N3Cc5ccccc5C[C@H]3CN3CC[C@@H](F)C3)CN(C(=O)Cc3ccc(OCCN5CCOCC5)cc3F)CC4)n(C)c2C)c2ccc(O)cc2)cc(C#N)n1C | 9.85 |
| Cc1c(C(=O)N(c2ccc(O)cc2)c2cc(C#N)n(C(F)F)c2C)cc(-c2cc3c(cc2C(=O)N2Cc4ccccc4C[C@H]2C)CN(C(=O)Cc2ccc(OCCN4CCOCC4)cc2)CC3)n1C | 9.34 |
| Cc1c(N(C(=O)c2cc(-c3cc4c(cc3C(=O)N3Cc5ccccc5C[C@H]3C)CN(C(=O)Cc3ccc(OCCN5CCN(C6CC6)CC5)cc3)CC4)n(C)c2C)c2ccc(O)cc2)cc(C#N)n1C | 9.40 |
| Cc1c(N(C(=O)c2cc(-c3cc4c(cc3C(=O)N3Cc5ccccc5C[C@H]3CN3CCCC3)CN(C(=O)Cc3ccc(OCCN5CCOCC5)cc3F)CC4)n(C)c2C)c2ccc(O)cc2)cc(C#N)n1C | 10.22 |
| COc1ncc(N(C(=O)c2cc(-c3cc4c(cc3C(=O)N3Cc5ccccc5C[C@H]3C)CN(C(=O)Cc3ccc(OCCN5CCOCC5)cc3)CC4)n(C)c2C)c2ccccc2)cc1C#N | 10.05 |
| Cc1c(N(C(=O)c2cc(-c3cc4c(cc3C(=O)N3Cc5ccccc5C[C@H]3CN3CCCCC3)CN(C(=O)Cc3ccc(OCCN(C)CC5COC5)cc3)CC4)n(C)c2C)c2ccc(O)cc2)cc(C#N)n1C | 9.77 |

* * *

System: BCL2 G101V
procedure.text: TR-FRET competitive binding assay, BCL2 G101V
Set-up: species or system human
protocol.conditions: ratio Ki BCL2 G101V / Ki BCL2 WT

| substance.smiles | TR_FRET EKI G101V/WT selectivty ratio |
| --- | --- |
| COc1ccc(N(C(=O)c2cc(-c3cc4c(cc3C(=O)N3Cc5ccccc5C[C@H]3C)CN(C(=O)Cc3ccc(OCCN5CCOCC5)cc3)CC4)n(C)c2C)c2ccccc2)cn1 | 65.3 |
| Cc1c(N(C(=O)c2cc(-c3cc4c(cc3C(=O)N3Cc5ccccc5C[C@H]3C)CN(C(=O)Cc3cccc(N5CCN(C)CC5)c3)CC4)n(C)c2C)c2ccccc2)cc(C#N)n1C | 11.7 |
| Cc1c(N(C(=O)c2cc(-c3cc4c(cc3C(=O)N3Cc5ccccc5C[C@H]3CN3CCCCC3)CN(C(=O)COc3ccccc3)CC4)n(C)c2C)c2ccc(O)cc2)cc(C#N)n1C | 9.4 |
| Cc1c(N(C(=O)c2cc(-c3cc4c(cc3C(=O)N3Cc5ccccc5C[C@H]3CN3CC[C@@H](F)C3)CN(C(=O)Cc3ccc(OCCC5CCOCC5)cc3)CC4)n(C)c2C)c2ccc(O)cc2)cc(C#N)n1C | 5.8 |
| COC[C@@H]1Cc2ccccc2CN1C(=O)c1cc2c(cc1-c1cc(C(=O)N(c3ccccc3)c3cnn(C(F)F)c3)c(C)n1C)CCN(C(=O)Cc1ccc(OCCN3CCOCC3)cc1)C2 | 100.3 |
| Cc1nn(C)cc1N(C(=O)c1cc(-c2cc3c(cc2C(=O)N2Cc4ccccc4C[C@H]2C)CN(C(=O)Cc2ccc(OCCN(C)C)cc2)CC3)n(C)c1C)c1ccccc1 | 79.5 |

* * *

assay.target: BCL2 D103Y (Homo sapiens, UniProt P10415, D103Y)
procedure.text: TR-FRET competitive binding assay, BCL2 D103Y
protocol.conditions: Ki determined from IC50, read-out: TR_FRET EKI_Bcl2 D103Y
# Ki listing for each entry below
result.type: Ki (nM)

| compound | reported.measurement |
| --- | --- |
| Cc1c(N(C(=O)c2cc(-c3cc4c(cc3C(=O)N3Cc5ccccc5C[C@H]3CN3CCCCC3)CN(C(=O)Cc3ccc(OCCN(C)C5COC5)cc3F)CC4)n(C)c2C)c2ccc(O)cc2)cc(C#N)n1C | 0.11 |
| Cc1c(C(=O)N(c2ccc(F)cc2)c2cnn(C)c2)cc(-c2cc3c(cc2C(=O)N2Cc4ccccc4C[C@H]2C)CN(C(=O)Cc2ccc(OCCN4CCOCC4)cc2)CC3)n1C | 0.15 |
| Cc1c(N(C(=O)c2cc(-c3cc4c(cc3C(=O)N3Cc5ccccc5C[C@H]3C)CN(C(=O)Cc3ccc([C@H]5C[C@@H]5N5CCOCC5)cc3F)CC4)n(C)c2C)c2ccc(O)cc2)cc(C#N)n1C (single isomer, unassigned) | 0.29 |
| Cc1c(N(C(=O)c2cc(-c3cc4c(cc3C(=O)N3Cc5ccccc5C[C@H]3C)CN(C(=O)Cc3ccc(OCCC5CCOCC5)cc3)CC4)n(C)c2C)c2ccc(O)cc2)cc(C#N)n1C | 0.73 |
